# study.system: T1, wild type full length EGFR purified from A431 cells (human, UniProt P00533 25-1210)
# T1 construct: mature; Bought; coated on ELISA wells; also called full length EGFR receptor antigen; Sigma E3641
# procedure.summary: competition ELISA, competitor ICR10
# Parameters: concentration or dose not given beside the values
result.type: % inhibition (%)
Unit % implied. Number only.

# annotated cases, reported % inhibition shown
binder	result.units	% inhibition
antibody 1320 (antibody, human IgG1, kappa, V domains shown, Chimeric IgG1 kappa) VH: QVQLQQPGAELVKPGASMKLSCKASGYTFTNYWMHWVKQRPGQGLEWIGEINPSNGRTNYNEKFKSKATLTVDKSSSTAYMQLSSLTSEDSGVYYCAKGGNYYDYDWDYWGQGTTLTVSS VL: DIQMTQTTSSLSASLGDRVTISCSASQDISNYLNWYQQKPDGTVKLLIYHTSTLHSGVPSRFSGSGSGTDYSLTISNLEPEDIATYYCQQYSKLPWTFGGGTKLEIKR	%	2
antibody 1208 (antibody, human IgG1, kappa, V domains shown, Chimeric IgG1 kappa; also called clone 1208) VH: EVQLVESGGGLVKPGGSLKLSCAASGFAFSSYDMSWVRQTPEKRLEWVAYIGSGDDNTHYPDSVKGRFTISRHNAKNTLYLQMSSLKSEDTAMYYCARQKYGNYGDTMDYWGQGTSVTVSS VL: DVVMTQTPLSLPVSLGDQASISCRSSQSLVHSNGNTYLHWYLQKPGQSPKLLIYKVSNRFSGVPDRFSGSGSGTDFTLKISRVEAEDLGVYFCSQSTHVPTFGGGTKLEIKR	%	-21
antibody 1261 (antibody, human IgG1, kappa, V domains shown, Chimeric IgG1 kappa) VH: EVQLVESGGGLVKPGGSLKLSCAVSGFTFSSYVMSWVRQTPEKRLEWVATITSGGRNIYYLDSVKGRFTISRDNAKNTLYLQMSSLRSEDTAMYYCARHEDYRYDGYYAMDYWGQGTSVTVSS VL: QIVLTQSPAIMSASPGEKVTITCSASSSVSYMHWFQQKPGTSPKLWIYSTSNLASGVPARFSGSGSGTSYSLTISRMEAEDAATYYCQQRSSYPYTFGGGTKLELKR	%	57
antibody 1260 (antibody, human IgG1, kappa, V domains shown, Chimeric IgG1 kappa) VH: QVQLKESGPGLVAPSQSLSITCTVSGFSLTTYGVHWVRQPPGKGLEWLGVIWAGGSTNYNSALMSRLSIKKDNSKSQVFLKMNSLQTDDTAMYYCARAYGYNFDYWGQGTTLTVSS VL: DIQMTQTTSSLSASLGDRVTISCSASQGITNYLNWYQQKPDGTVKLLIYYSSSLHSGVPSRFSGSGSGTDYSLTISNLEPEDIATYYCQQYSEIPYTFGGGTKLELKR	%	90

Field: next binder
// % inhibition value for antibody 1024 (antibody, human IgG1, kappa, V domains shown, Chimeric IgG1 kappa) VH: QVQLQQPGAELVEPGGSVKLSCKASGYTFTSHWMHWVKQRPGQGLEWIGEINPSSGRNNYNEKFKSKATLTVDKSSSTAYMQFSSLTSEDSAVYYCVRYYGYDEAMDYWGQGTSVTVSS VL: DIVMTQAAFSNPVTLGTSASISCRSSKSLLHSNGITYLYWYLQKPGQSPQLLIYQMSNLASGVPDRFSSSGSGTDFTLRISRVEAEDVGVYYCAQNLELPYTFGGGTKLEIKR : 11
